- tgt: RdRp of the influenza virus (replicon activity) (Influenza A virus, UniProt P03431)
- assaySummary: Influenza virus RdRp replicon reporter (Luc) assay in transduced 293T cells
- Assay type: cell-based, Influenza A/PR/8/34 (H1N1)
- conditionContext: HEK-293T, T-705 10 μM; antimetabolite 0.08 μM; read-out: Replicon inhibiting percentage
Listed below: inhibition at 10 µM values for each entry.
parameter: inhibition at 10 µM (%)

| compound | tgt | parameter | endpointValue |
| --- | --- | --- | --- |
| C#CCC(Cc1cnc2nc(N)nc(N)c2n1)c1ccc(C(=O)N[C@@H](CCC(=O)O)C(=O)O)cc1 (some centres unmarked) [Pralatrexate, pralatrexate] | RdRp of the influenza virus (replicon activity) (Influenza A virus, UniProt P03431) | inhibition at 10 µM | 33 |
| Sc1ncnc2nc[nH]c12 | RdRp of the influenza virus (replicon activity) (Influenza A virus, UniProt P03431) | inhibition at 10 µM | 1.8 |
| CN(Cc1cnc2nc(N)nc(N)c2n1)c1ccc(C(=O)N[C@@H](CCC(=O)O)C(=O)O)cc1 [Methotrexate, methotrexate] | RdRp of the influenza virus (replicon activity) (Influenza A virus, UniProt P03431) | inhibition at 10 µM | 11 |
| Cn1cnc([N+](=O)[O-])c1Sc1ncnc2nc[nH]c12 | RdRp of the influenza virus (replicon activity) (Influenza A virus, UniProt P03431) | inhibition at 10 µM | 3.3 |
| Nc1nc2nc[nH]c2c(=S)[nH]1 | RdRp of the influenza virus (replicon activity) (Influenza A virus, UniProt P03431) | inhibition at 10 µM | -1.2 |
